experiment: in vitro; conditions: human, Caco-2, pH 7.4, Percent Recovery 2nd
Counter-ions that a name gives are not always drawn. Non-standard residues stand in square brackets, D forms with d. Residues, ends and D or L forms follow the SMILES beside them. Dopa = N[C@@H](Cc1ccc(O)c(O)c1)C(=O)O
experimental.endpoint: recovery at 40 min, 10 μM (%)

compound	experimental.result
N[C@@H](CSC[C@H](NC(=O)[C@@H](N)Cc1ccc(O)c(O)c1)C(=O)O)C(=O)O (single isomer, unassigned; peak 2) [LD-LA2 TFA salt, Levodopa Lanthionine Peak 2 TFA Salt]	69
N=C(N)NCCC[C@H](NC(=O)[C@@H](N)Cc1ccc(O)c(O)c1)C(=O)O [LD-Arg TFA salt, Levodopa Arginine TFA Salt]	89
N[C@@H](Cc1ccc(O)c(O)c1)C(=O)N[C@@H](Cc1ccc(O)cc1)C(=O)O [LD-Tyr TFA salt, Levodopa Tyrosine TFA Salt] (H-[Dopa]-Tyr-OH)	97
N[C@@H](Cc1ccc(O)c(O)c1)C(=O)O [LD (control), L-3,4-dihydroxyphenylalanine, reference compound]	92
NC(=O)C[C@H](NC(=O)[C@@H](N)Cc1ccc(O)c(O)c1)C(=O)O [LD-Asn TFA salt, Levodopa Asparagine TFA Salt] (H-[Dopa]-Asn-OH)	84

----------
assay: In-vitro metabolism of LDAA compounds using liver microsomes; format: in vitro ADME, human; conditions: incubation time 45 minutes; 1.0E−07M
Structures can show the parent of a compound that is named as a salt. Non-standard residues stand in square brackets, D forms with d. Residues, ends and D or L forms follow the SMILES beside them. Dopa = N[C@@H](Cc1ccc(O)c(O)c1)C(=O)O
The compounds listed here are annotated with their % Compound Remaining 1st.
experimental.endpoint: % Compound Remaining 1st

compound	experimental.result
NCCCC[C@H](NC(=O)[C@@H](N)Cc1ccc(O)c(O)c1)C(=O)O [LD-Lys TFA salt, Levodopa Lysine TFA Salt] (H-[Dopa]-Lys-OH)	76.7%
N=C(N)NCCC[C@H](NC(=O)[C@@H](N)Cc1ccc(O)c(O)c1)C(=O)O [LD-Arg TFA salt, Levodopa Arginine TFA Salt]	70%
NC(=O)C[C@H](NC(=O)[C@@H](N)Cc1ccc(O)c(O)c1)C(=O)O [LD-Asn TFA salt, Levodopa Asparagine TFA Salt] (H-[Dopa]-Asn-OH)	66.1%
N[C@@H](CSC[C@@H](NC(=O)[C@@H](N)Cc1ccc(O)c(O)c1)C(=O)O)C(=O)O (single isomer, unassigned; peak 1) [LD-LA1 TFA salt, Levodopa Lanthionine Peak 1 TFA Salt]	79.7%

----------
test: physchem; type: physicochemical; conditions: 25 °C, aqueous buffer, thermodynamic from solid; solvent 0.1% NaBis in WFI; pH 7.0; read-out: LD-Lys TFA salt concentration
Structures can show the parent of a compound that is named as a salt. Non-standard residues stand in square brackets, D forms with d. Residues, ends and D or L forms follow the SMILES beside them. Dopa = N[C@@H](Cc1ccc(O)c(O)c1)C(=O)O
experimental.endpoint: solubility thermodynamic (mg/mL)

>>> print(df.to_string())
                                   compound     experimental_endpoint  experimental_result
0  NCCCC[C@H](NC(=O)[C@@H](N)Cc1ccc(O)c(O)c1)C(=O)O [LD-Lys TFA salt, Levodopa Lysine TFA Salt] (H-[Dopa]-Lys-OH)  solubility thermodynamic                  520
